system: Periplaneta americana; assay: Insecticidal activity against Periplaneta americana (American cockroach) assessed as killing compound injected into abdomen of cockroach after 24 hr in presence of 50 ug piperonyl butoxide oxidative metabolism inhibitor measured per insect relative to compound alone; format: functional
Ratio listing for selected compounds.
measurement.type: Ratio

>>> print(df.to_string())
                               entry_smiles       target_or_system  data_value
0  O=[N+]([O-])/N=C1\N(Cc2ccc(N3CCN(Cc4ccc(Cl)nc4)/C3=N\[N+](=O)[O-])cc2)CCN1Cc1ccc(Cl)nc1  Periplaneta americana           4
1  O=[N+]([O-])/N=C1/N(CCCOCCCN2CCN(Cc3ccc(Cl)nc3)/C2=N/[N+](=O)[O-])CCN1Cc1ccc(Cl)nc1  Periplaneta americana          26
2  O=[N+]([O-])/N=C1\N(CCCCCCCCCCN2CCN(Cc3ccc(Cl)nc3)/C2=N/[N+](=O)[O-])CCN1Cc1ccc(Cl)nc1  Periplaneta americana           2
3      O=[N+]([O-])/N=C1\NCCN1Cc1ccc(Cl)nc1  Periplaneta americana           3
4  O=[N+]([O-])/N=C1\N(CCCCCCN2CCN(Cc3ccc(Cl)nc3)/C2=N/[N+](=O)[O-])CCN1Cc1ccc(Cl)nc1  Periplaneta americana           4
5  O=[N+]([O-])/N=C1\N(CCN2CCN(Cc3ccc(Cl)nc3)/C2=N/[N+](=O)[O-])CCN1Cc1ccc(Cl)nc1  Periplaneta americana           1
